Tested on: T-47D breast
Experiment: NCI tumour cell line growth inhibition, 48 h
Where a SMILES comes first, the peptide text is derived from it. [ ]: non-standard residue; d: D form. The star is where a group is joined. Bn2Val = CC(C)[C@@H](C(=O)*)N(Cc1ccccc1)Cc1ccccc1; NH(4-Cl-benzyl) = Clc1ccc(CN*)cc1; NMeV = CN[C@H](C(=O)O)C(C)C; dNMeA = CN[C@H](C)C(=O)O
recorded_endpoint: TGI

Some compounds with recorded TGI:
{"compound": "O=C(Nc1ccccc1C(=O)NCc1ccccc1)/C(=C/c1ccccc1)NC(=O)c1ccccc1", "system_tested": "T-47D breast", "TGI": "> 100 µM"}
{"compound": "COc1cc2c(cc1O)CC1c3c(cc(O)c(OC)c3-2)CCN1C (stereo not drawn)", "system_tested": "T-47D breast", "TGI": "> 100 µM"}

Lookup result for CCCSc1ccc2[nH]c(N3C(=O)/C(=C/c4ccccc4)N=C3c3ccccc3)cc2c1 ; measured TGI: > 50 µM

Reported TGI ( COc1cc(NC(=O)CCSc2nc3ccc(C)cc3c(=O)n2Cc2ccccc2)cc(OC)c1OC ) = > 100 µM

What the record says about O=C(Nn1c(-c2ccccc2)nc2ccccc2c1=O)c1ccccc1O : TGI is > 100 µM

Record COC(=O)C1C(O)C(C)C(O)C(C)C=C(C)C2=C3C(=C(C)C(=O)c4c(O)c(c(C)c(OC(C)=O)c43)NC(=O)C(C)=C/C=C\C(C)C(O)C(C)C1O)OCO2 (stereo not drawn) . Reported TGI: > 100 µM

Looking up Nc1nc(Cl)cc(NC23CC4CC(CC(C4)C2)C3)n1 , I found its TGI recorded as > 100 µM

Entry under test: CC(C)/C(Cl)=N\OC(NC(=O)P(=O)(c1ccccc1)c1ccccc1)(C(F)(F)F)C(F)(F)F . Its TGI was > 100 µM

Sample O=C(N/N=C/C=C/c1ccccc1)c1ccccc1Nc1ccccc1C(=O)N/N=C/C=C/c1ccccc1 ; TGI observed: > 100 µM

Please fill in: TGI reported for CC(C)[C@H](NC(=O)[C@H](C(C)C)N(Cc1ccccc1)Cc1ccccc1)C(=O)N(C)[C@H](C(=O)N1CCC[C@H]1C(=O)N(C)[C@H](C)C(=O)NCc1ccc(Cl)cc1)C(C)C (Bn2Val-V[NMeV]P[dNMeA]-{NH(4-Cl-benzyl)}) = > 100 µM

Entry COC(=O)COc1ccc(/C=C2/N=C(c3ccccc3)N(c3c(C)n(C)n(-c4ccccc4)c3=O)C2=O)cc1 ; TGI = 61.2 µM

Recorded TGI (compound O=C1OC[C@H]2[C@@H]1[C@H]1O[C@@H]2C2=C(CCC2)C1=O ): > 100 µM

The compound identified as S=c1nc(N/N=C/c2ccco2)c2cn[nH]c2[nH]1 registered its TGI at 48.1 µM

Reported TGI ( NCCOCCOCCNc1nc(-c2ccc(Cl)cc2)nc(N2CCN(c3ccccn3)CC2)n1 ) = 9.94 µM

Value of measured TGI for the entry O=C1CC(c2[nH]nc3ccccc23)C(=O)N1c1ccccc1 (stereo not drawn) : > 100 µM

The reported value for Cc1ccc(S(=O)(=O)c2nc(-c3ccccc3)oc2S(C)=O)cc1 (stereo not drawn) in terms of TGI is 3.17 µM

Query NNC(=O)C1(NC(=O)c2ccccc2)C(c2ccccc2)C(c2ccccc2)=NN1c1ccccc1 (stereo not drawn) yields TGI of > 100 µM

// CCCCCCCCCCCCCCCCCCNc1nc(=O)n(C2CC(O)C(COP(=O)(O)O)O2)cc1F (stereo not drawn) : TGI value = > 100 µM

Just so you know, measured TGI for O=C1/C(=C/c2ccccc2)CN(C(=O)CCN2CCCC2)C/C1=C\c1ccccc1 came out at 5.61 µM

// TGI value for NN=C(CC(O)(C(F)(F)Cl)C(F)(F)Cl)CC(O)(C(F)(F)Cl)C(F)(F)Cl : > 10 µM

// recorded TGI for Cc1nc2ccc(NC(=O)CCNC(=O)CCCc3ccc(CC(C(=O)O)C(=O)O)cc3)cc2s1 : > 100 µM

Reported TGI ( COc1cc(C2C(Cl)C(=O)N2c2c(C)n(C)n(-c3ccccc3)c2=O)ccc1O (stereo not drawn) ) = > 100 µM

For O=C(Oc1ccc(CO[N+](=O)[O-])cc1)c1ccccc1 the compound record lists TGI as 0.323 µM

According to the records, this compound Cc1cc2c([nH]c3ccccc32)c(O)c1-c1c(C)cc2c([nH]c3ccccc32)c1O displays TGI of 31.3 µM

According to the records, this compound COc1cc2cc(C(=O)N3CC(COS(C)(=O)=O)c4ccc(O)cc43)[nH]c2c(OC)c1OC (stereo not drawn) displays TGI of 0.0416 µM

Memo: COc1ccc(C(SC2C(O)C(CO)OC2n2ccc(=O)[nH]c2=O)(c2ccccc2)c2ccc(OC)cc2)cc1 (stereo not drawn) , reported TGI: 48.7 µM

So, O=C1c2c(O)cccc2-c2nn(CCNCCO)c3ccc(NCCNCCO)c1c23 ? Its TGI was 4.61 µM

Cc1nc(Nc2cccnc2)sc1C(=O)/C=C/c1ccc(Cl)cc1 yielded TGI of 29.4 µM

The recorded TGI for CN(Cc1cnc2nc(N)nc(N)c2n1)c1ccc(C(=O)NC(CO)CCCO)cc1 (stereo not drawn) is > 100 µM

----------
System: OVCAR-3 ovarian
Experiment: NCI tumour cell line growth inhibition, 48 h
recorded_endpoint: TGI (µM)
Your answer is read as µM, so omit the unit and give the number.

{"molecule": "O=C1/C(=C/c2ccccc2)CN(C(=O)CCN2CCCC2)C/C1=C\\c1ccccc1", "readout_units": "µM", "readout_number": 7.66}

O=c1[nH]c2ccccc2n1CCCN1CCC(n2c(=O)[nH]c3cc(Cl)ccc32)CC1 has a reported TGI of 38.9

Record summary for C=C1CCC2(C#N)[C@H]3[C@H](CC[C@@H]2C)[C@@H](C)C[C@@H](CC(C)(C)NC(=O)CN2CCC2=O)[C@H]13 (some centres undefined) : reported TGI = 15

TGI reading for Cn1cc(C2=C(c3cn(C)c4ccc(Cl)cc34)C(=O)NC2=O)c2ccccc21 : 6.88

The measured TGI associated with COc1cc2c(cc1OCCCCCCN1CCN(CC(=O)Nc3ccc(Cl)cc3C(=O)c3ccccc3Cl)CC1)N=CC1CCCN1C2=O (centres undefined) reads 0.396

Form: molecule = CC(C)(C)CC(C)(C)c1cc(O)c(O)c(CN2CCCCC2)c1 ; TGI = 28

Looking up COC(=O)C1=C(C(=O)OC)C2(C)C=CC1O2 (centres undefined) , I see its TGI listed as 2.86

Item: COc1ccc(C(SC2C(O)C(CO)OC2n2ccc(=O)[nH]c2=O)(c2ccccc2)c2ccc(OC)cc2)cc1 (centres undefined) | TGI: 37.1

----------
Tested on: OVCAR-3 ovarian
Assay: NCI tumour cell line growth inhibition, 48 h; in the data active means GI50 below about 0.43 µM; inactive means the rest
// allowed return values: active, inactive

Solved entries (count: 4):
{"compound": "Cn1cc(-c2ccc3nnc(Sc4ccc5ncccc5c4)n3n2)cn1", "class_name": "inactive"}
{"compound": "O=c1[nH]c2nc(NC3CCOCC3)ncc2cc1Oc1ccc(F)cc1F", "class_name": "inactive"}
{"compound": "S=c1nc(N/N=C/c2ccco2)c2cn[nH]c2[nH]1", "class_name": "inactive"}
{"compound": "NCCOCCOCCNc1nc(-c2ccc(Cl)cc2)nc(N2CCN(c3ccccn3)CC2)n1", "class_name": "inactive"}

# input Dear all, I need the recorded test outcome for CCCCCC[C@H](C)Nc1nc2ccccc2c2occc12 , thank you.
# output inactive

# input Record lookup: outcome of this test for C1=C2CCCC3=Cc4ccccc4OC23Oc2ccccc21 ?
# output inactive

# input What was the test verdict on O=C(Oc1ccc(CO[N+](=O)[O-])cc1)c1ccccc1 ?
# output active

# input How did this test come out for COC(=O)COc1ccc(/C=C2/N=C(c3ccccc3)N(c3c(C)n(C)n(-c4ccccc4)c3=O)C2=O)cc1 ?
# output inactive

# input GET /call?item= O=P1(S)OC[C@H]2O[C@@H]3[C@H](F)[C@@H]2OP(O)(=S)OC[C@H]2O[C@H]([C@H](F)[C@@H]2O1)n1cnc2c(ncnc21)NC/C=C/CNc1ncnc2c1ncn23 (stereo partly specified) returns the recorded outcome of this test.
# output inactive

# input Hey, what did the test say about COc1ccc2[nH]c(O)c(/C=c3/cc4c(c(-c5ccc(F)c(OC)c5)n3)=Nc3ccccc3-4)c2c1 ?
# output inactive

# input Any idea what this test logged for CC1=C2C(=CO[C@H](C)[C@H]2C)C(=O)C(C(=O)O)=C1O ?
# output inactive

----------
Test system: RPMI-8226 leukemia
Experiment: NCI tumour cell line growth inhibition, 48 h
Form field: TGI (one value per entry).

Some entries whose results are on file:
{"compound": "COc1ccc(CCc2cc(OC)cc(OC)c2)cc1", "recorded_endpoint": "TGI", "result": "94.8 µM"}
{"compound": "CCOC(=O)Nn1c(CC#N)nnc1Cc1ccccc1", "recorded_endpoint": "TGI", "result": "> 100 µM"}

Bench note, RPMI-8226 leukemia: Cc1ccccc1-c1nc2c(C(=O)NCCN(C)C)cccc2[nH]1 , TGI reads 73.4 µM

Readout TGI for Cc1cccc(C)c1NC(=O)CCc1nc(=S)[nH][nH]1 , test system RPMI-8226 leukemia, was > 100 µM

Summary: O=C1OC[C@H]2[C@@H]1[C@H]1O[C@@H]2C2=C(CCC2)C1=O , RPMI-8226 leukemia, TGI = > 100 µM

Values were extracted from PubChem BioAssay (NCI).
